assay-info: folding enthalpy; higher = less favourable; fluorescence melt of hairpins on a sequencing array, two-state fit
condition: sodium 0.088 M
experimental-readout: folding enthalpy (kcal/mol)
Quick note: give the figure in kcal/mol, leave out the unit.

>>> observed_value("TCTCTGAAAAGAGA (((((....)))))")
-12.1
>>> observed_value("GGCAATCGAAAGATAGCC (((.(((....))).)))")
-31.8
>>> observed_value("GCAGACGAAAGTCCTGC ((((((....))).)))")
-23.8
>>> observed_value("GATCTTCGTAAGATC ((((((...))))))")
-30.9
>>> observed_value("GTTCCTCGAAAGAGAAAC (((.(((....))).)))")
-20.3
>>> observed_value("GGCCTCGAAAGAGCCGCC ((((((....)))..)))")
-20.3
>>> observed_value("GGGTGAGGAAACTCGTCC ((..(((....)))..))")
-28.5
>>> observed_value("GATCAGGGTGCTGATC ((((((....))))))")
-31.2
>>> observed_value("GCCTAATCGAAAGATGGC (((..(((....))))))")
-27.4
>>> observed_value("GAATCCGGAAACAGATTC (((((.(....).)))))")
-19.5

Quick one: folding enthalpy for GCGTCTGAACGC ((((....)))) ?
-25.2

Look up folding enthalpy for this sequence: GTCCATCGAAAGATTGAC (((.(((....))).)))
-34.1

Field request: folding enthalpy | item: GCGTGAGAAATCACGC ((((((....))))))
-29.5

Bench note: what folding enthalpy did GTGAATGGAAACATTTGC (..((((....))))..) show?
-15.5

Look at this sequence and give its reported folding enthalpy. GCCACCGAAAGGTCTGGC ((((((....)))..)))
-19.4

// lookup folding enthalpy for GTGTGTGAAAACACAC ((((((....))))))
-36.7

Value lookup for folding enthalpy; key = GAATCTGGAAACAGATTC (((((((....)))))))
-49.8

Fill blank: measured folding enthalpy of the sequence GCATGTGGAAACATATGC ((((.((....)).)))) is ____.
-30.9

folding enthalpy lookup needed for GGCAACGAAAGTTATGCC ((((((....)))..))) , thanks.
-24.2

State the recorded folding enthalpy for this entry: GCGATCCTCGC ((((...))))
-20.9

What value of folding enthalpy has been reported for the following sequence? GAGTCTACGAAAGTACTC (((..(((....))))))
-15

Please give the measured folding enthalpy for this sequence: GCGGGACTCCGC ((((....))))
-27.3

Which folding enthalpy reading was recorded for the sequence GTAACTGGAAACAGTTAC (((((((....))))))) ?
-41.6

Look up folding enthalpy: GATAGGCGAAAGCCATC (((.(((....))))))
-12.6

folding enthalpy lookup needed for GATCTTAATCAAGATC ((((((....)))))) , thanks.
-26.5

// folding enthalpy lookup, key: GATCAATGCTTTGATC ((((((....))))))
-39.7

----------
assay-info: folding enthalpy; higher = less favourable; fluorescence melt of hairpins on a sequencing array, two-state fit
condition: sodium 0.088 M
folding enthalpy by entry:

>>> observed_value("GATCGTTCCTACGATC ((((((....))))))")
"-41.9 kcal/mol"
>>> observed_value("GCGTGCGAAAGCACACGC ((((((....)))..)))")
"-15 kcal/mol"
>>> observed_value("GACGTTGGAAACAACACC (..((((....))))..)")
"-9.55 kcal/mol"

Now examine the next entry.
Can you share its folding enthalpy? I mean this sequence: CAATCAGAAATGGTTG (((.((....)).)))
-13.9 kcal/mol

----------
assay-info: folding enthalpy; higher = less favourable; fluorescence melt of hairpins on a sequencing array, two-state fit
condition: sodium 0.088 M
experimental-readout: folding enthalpy (kJ/mol)
Entry rule: numbers only, all in kJ/mol.

# annotated cases, reported folding enthalpy shown
>>> observed_value("GGCAGACCGAAAGGTGCC (((..(((....))))))")
-147
>>> observed_value("GATCGATGCTCGATC ((((((...))))))")
-155

// returns reported folding enthalpy for input GATCACCTGGGTGATC ((((((....))))))
-199

Look up folding enthalpy for this sequence: GTCGTGGGAAACCGTGAC (((..((....))..)))
-108

Dear colleague, I am looking for the recorded folding enthalpy of the following sequence: GTAAGGCGAAAGCCCTAC (((.(((....))).)))
-56.4

Tell me the measured folding enthalpy of GGGCGGGGAAACTCGCCC (((((.(....).))))) , please.
-173

# folding enthalpy lookup, item GTGCACGGAAACACGCAC ((((..(....)..))))
-122

Look up folding enthalpy for this sequence: GACTGCGAAAGCAAGTC ((((((....))).)))
-89.2

Look at this sequence and give its reported folding enthalpy. GCCATGCGAAAGCTTTGC ((.(.((....)).).))
-49.1

If you can, please state the reported folding enthalpy value of GTCTCCGGAAACGGGGAC (((.(((....))).))) .
-172

Form field: reported folding enthalpy of GCAGAGGGAAACCTCTGC (((((((....)))))))
-193

Recorded folding enthalpy for GGAGCCGAAAGGCGATCC ((((((....)))..))) , please?
-39.7

----------
assay-info: melting temperature; fluorescence melt of hairpins on a sequencing array, two-state fit, raised by 9.35 °C to match UV melts
condition: sodium 0.088 M
Measured Tm of individual entries
Write your answer as a measured quantity: the number, then the unit.

>>> observed_value("GTGGGGGGAAACCCCTAC ((.((((....)))).))")
"52.2 °C"
>>> observed_value("GATCCACCCTGGATC ((((((...))))))")
"51 °C"
>>> observed_value("GTTCATGGAAACATGAAC (((((((....)))))))")
"58.2 °C"
>>> observed_value("GTTCGTCGAAAGACTAAC (((.(((....))).)))")
"41.3 °C"
>>> observed_value("GATCTTTTAGAAGATC ((((((....))))))")
"44.4 °C"
>>> observed_value("GATCCTATGAAGGATC ((((((....))))))")
"51 °C"
>>> observed_value("GGATACGAAAGTATGTCC ((((((....)))..)))")
"30.1 °C"
>>> observed_value("GCAATGACGAAAGTCTGC (((..(((....))))))")
"42 °C"

Name the recorded Tm for GATCATCCGTATGATC ((((((....)))))) .
47.8 °C

Which Tm value belongs to GCTGCTGGAAACAGTGGC ((..(((....)))..)) ?
47.6 °C

Would you kindly share the measured Tm for GATCAGTGAGCTGATC ((((((....)))))) ?
56.2 °C

Give its Tm value. Item: GCACAGCGAAAGCTGAGC ((.((((....)))).))
63.4 °C

Request the reported Tm associated with GAGTGTGGAAACACACCC (.(((((....))))).)
40.8 °C

Name the reported Tm value associated with the sequence GCGAACGAAAGTTTACGC ((((((....)))..)))
43 °C

What does the data say about its Tm? Entry: GCGAGGATTCGC ((((....))))
54.7 °C

If you can, please state the reported Tm value of GGTTGAGGAAACTCAGCC ((.((((....)))).)) .
50 °C

So what does the record say about Tm for GTAATAGGAAACTGTTAC ((((.((....)).)))) ?
36.4 °C

Recorded Tm of GGGCTTCCGAAAGGACCC (((..(((....)))))) , please.
39.9 °C

Suppose we examine the sequence GATCCCCGGCGGGATC ((((((....)))))) ; what Tm value has been reported?
55.7 °C

Entry GGAGGCGGAAACACCTCC (((((.(....).))))) has what Tm?
50.1 °C

----------
assay-info: melting temperature; fluorescence melt of hairpins on a sequencing array, two-state fit, raised by 9.35 °C to match UV melts
condition: sodium 0.088 M
Ranges used to classify Tm: lo: < 40 °C; mid: ≥ 40 °C and < 60 °C; hi: ≥ 60 °C

>>> category("GTCGCACGAAAGTGGGAC (((.(((....))).)))")
"hi"
>>> category("GTTGTGCGAAAGCAGAAC (((.(((....))).)))")
"mid"
>>> category("GCGATGCCTCGC ((((....))))")
"mid"
>>> category("GCTACGCGAAAGCGGGGC ((..(((....)))..))")
"hi"
>>> category("CGCTTCGGAAACGATGCG (((.(((....))).)))")
"mid"

Given GCACCGCGAAAGCGAAGC ((..(((....)))..)) , name the class its Tm places it in.
mid

Into which category would you place GATCGCCCCGGCGATC ((((((....)))))) ?
hi

# bin label for AGCAGGAAACTGCT (((((....)))))
mid

Lab log: GGGGCAGGAAACCACCCC ((((..(....)..)))) — assign Tm category
lo

Classify this sequence: GCGACGCGAAAGCCTTGC ((.(.((....)).).))
lo

Hey, which category is GGAGGGCGAAAGCCGTCC (((.(((....))).))) in, do you know?
hi

Into which category would you place GTTCAACCGAAAGGTAAC (((..(((....)))))) ?
lo

In plain terms, what class is GAGATACGAAAGTACCTC (((.(((....))).))) ?
mid

Values compiled from the array DNA melting data of Ke et al. (doi:10.1101/2024.01.08.574731).
